# measured_on: GABA-A receptor; anion channel
# method_summary: In vitro binding affinity to the Gamma-aminobutyric acid A receptor complex in presence of GABA in rat cerebellum tissue
# Assay type: tissue-based
pIC50: −log10 of the molar value.
Parameter pIC50: see the listing below.

molecule: COP(=O)(c1ccccc1)N1CCCC(c2ccc(Br)cc2)=N1 (stereo unspecified)
measured_on: GABA-A receptor; anion channel
result_modifier: <
pIC50: 4.96
--
molecule: CC(C)OP(=O)(c1ccccc1)N1CCCC(c2ccc(Cl)c(Cl)c2)=N1 (stereo unspecified)
measured_on: GABA-A receptor; anion channel
result_modifier: =
pIC50: 5.85
--
molecule: CCCCc1ccc(C2=NN(S(=O)(=O)c3ccc(CCCC)cc3)CCC2)cc1
measured_on: GABA-A receptor; anion channel
result_modifier: =
pIC50: 6.68
--
molecule: CCCCc1ccc(C2=NN(S(=O)(=O)c3ccc(I)cc3)CCC2)cc1
measured_on: GABA-A receptor; anion channel
result_modifier: =
pIC50: 6.11
--
molecule: CCCCc1ccc(C2=NN(P(=O)(OC)c3ccccc3)CCC2)cc1 (stereo unspecified)
measured_on: GABA-A receptor; anion channel
result_modifier: =
pIC50: 6.30
--
molecule: CCc1ccc(C2=NN(S(=O)(=O)c3ccc(I)cc3)CCC2)cc1
measured_on: GABA-A receptor; anion channel
result_modifier: =
pIC50: 6.05

====

# measured_on: GABA-A receptor; anion channel
# method_summary: In vitro binding affinity to the Gamma-aminobutyric acid A receptor complex in presence of GABA in rat cerebellum tissue
# Type: tissue-based
pIC50: −log10 of the molar value.
Parameter pIC50: see the listing below.

molecule: CCCCc1ccc(C2=NN(S(=O)(=O)c3ccc(Cl)cc3)CCC2)cc1
result_modifier: <
pIC50: 4.96
//
molecule: CCCCc1ccc(C2=NN(S(=O)(=O)c3ccccc3)CCC2)cc1
result_modifier: =
pIC50: 5.96
//
molecule: CCCCc1ccc(C2=NN(S(=O)(=O)c3ccc(C)cc3)CCC2)cc1
result_modifier: =
pIC50: 5.66
//
molecule: CCOP(=O)(c1ccccc1)N1CCCC(c2ccc(F)cc2)=N1 (centres undefined)
result_modifier: =
pIC50: 5.00
//
molecule: CCCCc1ccc(S(=O)(=O)N2CCCC(c3ccc(C(C)C)cc3)=N2)cc1
result_modifier: =
pIC50: 5.00
//
molecule: CCOP(=O)(c1ccccc1)N1CCCC(c2ccc(Cl)c(Cl)c2)=N1 (centres undefined)
result_modifier: =
pIC50: 5.98
//
molecule: COP(=O)(c1ccccc1)N1CCCC(c2ccccc2)=N1 (centres undefined)
result_modifier: <
pIC50: 4.96
//
molecule: C[C@]12CC[C@@H](O)C[C@@H]1CC[C@@H]1[C@@H]2CC[C@]2(C)[C@@H](C(=O)CO)CC[C@@H]12
result_modifier: =
pIC50: 7.05
//
molecule: CCCCc1ccc(S(=O)(=O)N2CCCC(c3ccc(CC)cc3)=N2)cc1
result_modifier: =
pIC50: 5.74

====

# measured_on: GABA-A receptor; anion channel (Rattus norvegicus) (UniProt O09028+P15431+P18506+P18508+P19969+P20236+P23574+P23576+P28471+P28473+P30191+P62813+P63079+P63138+Q91ZM7+Q9ES14)
# method_summary: Ratio of IC50 in the presence and absence of GABA.
# Format: functional
Parameter GS: see the listing below.
readout_name: GS

compound: CCCCc1ccc(S(=O)(=O)N2CCCC(c3ccc(CC)cc3)=N2)cc1
readout_number: 2.1
--
compound: CCCCc1ccc(C2=NN(S(=O)(=O)c3ccc(C)cc3)CCC2)cc1
readout_number: 5
--
compound: CCOP(=O)(c1ccccc1)N1CCCC(c2ccc(Cl)c(Cl)c2)=N1 (stereo not drawn)
readout_number: 1.3
--
compound: CCCCc1ccc(C2=NN(P(=O)(OC)c3ccccc3)CCC2)cc1 (stereo not drawn)
readout_number: 4
--
compound: CC(C)c1ccc(C2=NN(S(=O)(=O)c3ccc(I)cc3)CCC2)cc1
readout_number: 1.7
--
compound: COP(=O)(c1ccccc1)N1CCCC(c2ccc(F)cc2)=N1 (stereo not drawn)
readout_number: 1.1
--
compound: CC(=O)[C@H]1CC[C@H]2[C@@H]3CC[C@H]4C[C@H](O)CC[C@]4(C)[C@H]3CC[C@]12C [BREXANOLONE]
readout_number: 32.6
--
compound: C[C@]12CC[C@@H](O)C[C@@H]1CC[C@@H]1[C@@H]2CC[C@]2(C)[C@@H](C(=O)CO)CC[C@@H]12
readout_number: 33.9
--
compound: CCCCc1ccc(C2=NN(S(=O)(=O)c3ccccc3)CCC2)cc1
readout_number: 10
--
compound: COP(=O)(c1ccccc1)N1CCCC(c2ccc(Cl)c(C(F)(F)F)c2)=N1 (stereo not drawn)
readout_number: 1.3
--
compound: CCOP(=O)(c1ccccc1)N1CCCC(c2ccc(F)cc2)=N1 (stereo not drawn)
readout_number: 1.1
--
compound: CCCCc1ccc(C2=NN(S(=O)(=O)c3ccc(CCCC)cc3)CCC2)cc1
readout_number: 52.4
--
compound: CCOP(=O)(c1ccccc1)N1CCCC(c2ccc(Cl)c(C(F)(F)F)c2)=N1 (stereo not drawn)
readout_number: 4.9
--
compound: CCc1ccc(C2=NN(S(=O)(=O)c3ccc(I)cc3)CCC2)cc1
readout_number: 11.1
--
compound: CCCCc1ccc(C2=NN(P(=O)(OCC)c3ccccc3)CCC2)cc1 (stereo not drawn)
readout_number: 1.5
--
compound: COc1ccc(C2=NN(P(=O)(OC)c3ccccc3)CCC2)cc1 (stereo not drawn)
readout_number: 1.7
--
compound: O=P(OC1CCCC1)(c1ccccc1)N1CCCC(c2ccc(Cl)c(Cl)c2)=N1 (stereo not drawn)
readout_number: 32.6
--
compound: CC(C)OP(=O)(c1ccccc1)N1CCCC(c2ccc(Cl)c(Cl)c2)=N1 (stereo not drawn)
readout_number: 7.1

====

Parameter IC50: see the listing below.
# measured_on: GABA-A receptor; anion channel
# method_summary: In vitro binding affinity to the Gamma-aminobutyric acid A receptor complex in absence of GABA in rat cerebellum tissue
# Format: tissue-based
readout_name: IC50 (µM)

molecule: CC(C)OP(=O)(c1ccccc1)N1CCCC(c2ccc(Cl)c(Cl)c2)=N1 (stereo not given)
readout_name: IC50
result_modifier: =
readout_number: 10
--
molecule: CCCCc1ccc(S(=O)(=O)N2CCCC(c3ccc(CC)cc3)=N2)cc1
readout_name: IC50
result_modifier: =
readout_number: 3.77
--
molecule: CCOP(=O)(c1ccccc1)N1CCCC(c2ccc(F)cc2)=N1 (stereo not given)
readout_name: IC50
result_modifier: >
readout_number: 11
--
molecule: CCCCc1ccc(S(=O)(=O)N2CCCC(c3ccc(CC(C)C)cc3)=N2)cc1
readout_name: IC50
result_modifier: >
readout_number: 11
--
molecule: CCCCc1ccc(C2=NN(S(=O)(=O)c3ccccc3)CCC2)cc1
readout_name: IC50
result_modifier: >
readout_number: 11

====

Parameter pIC50: see the listing below.
# measured_on: GABA-A receptor; anion channel
# method_summary: In vitro binding affinity to the Gamma-aminobutyric acid A receptor complex in presence of GABA in rat cerebellum tissue
# Format: tissue-based
pIC50: −log10 of the molar value.
readout_name: pIC50

compound: CC(C)c1ccc(C2=NN(S(=O)(=O)c3ccc(I)cc3)CCC2)cc1
result_modifier: =
readout_number: 5.20
//
compound: COc1ccc(C2=NN(P(=O)(OC)c3ccccc3)CCC2)cc1 (stereo not given)
result_modifier: =
readout_number: 5.19
//
compound: CC(C)Cc1ccc(C2=NN(S(=O)(=O)c3ccc(I)cc3)CCC2)cc1
result_modifier: <
readout_number: 4.96
//
compound: CCOP(=O)(c1ccccc1)N1CCCC(c2ccc(Cl)c(C(F)(F)F)c2)=N1 (stereo not given)
result_modifier: =
readout_number: 5.96
//
compound: COP(=O)(c1ccccc1)N1CCCC(c2ccc(Cl)c(C(F)(F)F)c2)=N1 (stereo not given)
result_modifier: =
readout_number: 5.18
//
compound: CCCCc1ccc(S(=O)(=O)N2CCCC(c3ccc(CC(C)C)cc3)=N2)cc1
result_modifier: <
readout_number: 4.96
//
compound: CCCCCCc1ccc(C2=NN(S(=O)(=O)c3ccc(I)cc3)CCC2)cc1
result_modifier: <
readout_number: 4.96
//
compound: CCCCc1ccc(C2=NN(P(=O)(OCC)c3ccccc3)CCC2)cc1 (stereo not given)
result_modifier: =
readout_number: 6.14
//
compound: CC(=O)[C@H]1CC[C@H]2[C@@H]3CC[C@H]4C[C@H](O)CC[C@]4(C)[C@H]3CC[C@]12C
result_modifier: =
readout_number: 7.10
//
compound: COP(=O)(c1ccccc1)N1CCCC(c2ccc(F)cc2)=N1 (stereo not given)
result_modifier: =
readout_number: 5.00

====

# measured_on: GABA-A receptor; anion channel
# method_summary: In vitro binding affinity to the Gamma-aminobutyric acid A receptor complex in absence of GABA in rat cerebellum tissue
# Type: tissue-based
pIC50: −log10 of the molar value.
readout_name: pIC50

molecule: CCCCc1ccc(C2=NN(S(=O)(=O)c3ccc(CCCC)cc3)CCC2)cc1
result: < 4.96

molecule: COP(=O)(c1ccccc1)N1CCCC(c2ccc(F)cc2)=N1 (centres undefined)
result: < 4.96

molecule: CC(C)c1ccc(C2=NN(S(=O)(=O)c3ccc(I)cc3)CCC2)cc1
result: < 4.96

molecule: CC(C)Cc1ccc(C2=NN(S(=O)(=O)c3ccc(I)cc3)CCC2)cc1
result: < 4.96

molecule: CCc1ccc(C2=NN(S(=O)(=O)c3ccc(I)cc3)CCC2)cc1
result: 5.00

molecule: CCCCc1ccc(C2=NN(P(=O)(OC)c3ccccc3)CCC2)cc1 (centres undefined)
result: 5.70

molecule: COP(=O)(c1ccccc1)N1CCCC(c2ccc(Br)cc2)=N1 (centres undefined)
result: < 4.96

molecule: CCCCCCc1ccc(C2=NN(S(=O)(=O)c3ccc(I)cc3)CCC2)cc1
result: < 4.96

molecule: CCCCc1ccc(C2=NN(P(=O)(OCC)c3ccccc3)CCC2)cc1 (centres undefined)
result: 5.95
